B1: H2-Kb / B7 (parent)
chain 1: GQQVQQSPTSLVLQEGENAELQCNFSTSLNSMQWFYQRPGGSLVSVFYNPSGTKQSGRLTSTTVIKERRSSLHISSSQITDSGTYLCAMERDMGYKLTFGTGTSLLVDP
chain 2: EAAVTQSPRNKVAVTGGKVTLSCNQTNNHNNMYWYRQDTGHGLRLIHYSYGAGSTEKGDIPDGYKASRPSQENFSLILELATPSQTSVYFCASGDPGDQDTQYFGPGTRLLVL
chain 3: not shown
chain 4: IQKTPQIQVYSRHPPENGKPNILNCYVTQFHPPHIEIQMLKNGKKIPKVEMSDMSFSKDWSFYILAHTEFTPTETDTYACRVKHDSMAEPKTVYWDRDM
chain 5: SIINFEKL

Variants of: B1
Test: % of reporter cells activated (NFAT-GFP), raw; note: test concentration or dose not given here
Details: with B7; scale: % of reporter cells activated
observable: ratio to parent

Please review the entries below; each comes with its answer.
Note to self: ratio to parent recorded for chain 5 I3T was 1.48

Reported ratio to parent ( chain 5 L8Y ) = 0.769

Reported ratio to parent ( chain 5 I2R ) = 0.846

Query chain 5 K7M yields ratio to parent of 0.908

So, chain 5 E6M ? Its ratio to parent was 0.985

// sample chain 5 E6A , its ratio to parent was 1.17

Sample chain 5 K7F ; ratio to parent observed: 0.846

Entry under test: chain 5 F5E . Its ratio to parent was 1.49

Reported ratio to parent ( chain 5 I3E ) = 1.32

chain 5 L8A yielded ratio to parent of 0.862

P: chain 5 I2W
Q: chain 5 N4C
For P and Q , which recorded ratio to parent is lower? Lab note: record the label of whichever item you select.
Q
(Q: 0.908, P: 1.46)
